Assign fold induction at 5 µM to each entry below.
# System: mitotic marker phospho-histone H3 at serine 10 (pH3 (Ser10)) in transformed BJ cells
# assay: Immunoblot analysis of mitotic marker pH3 (Ser10), derivatives of Compound 1
# Type: cell-based
# details: Homo sapiens, band intensities pH3(Ser10)/β-actin vs DMSO control, 24 h
API note: the answer field is a bare number with no unit suffix.

Consider the compound `N#C/C(=C\c1cccc2cnccc12)c1c[nH]c2ccc(OCCCN3CCCC3)cc12` and give its measured fold induction at 5 µM. 0.9

Queued: `CN1CCN(CC(=O)n2cc(/C(C#N)=C/c3cccc4cnccc34)c3ccccc32)CC1` 11.8

Queued: `N#C/C(=C\c1cccc2cnccc12)c1c[nH]c2c(Br)cccc12` 1.4

Queued: `COCCOc1ccc2[nH]cc(/C(C#N)=C/c3cccc4cnccc34)c2c1` 1.6

Queued: `O=C(Nc1cccc2cnccc12)c1c[nH]c2ccccc12` 1.4

Queued: `N#C/C(=C\c1cccc2cnccc12)c1c[nH]c2ccc(NC(=O)CCCC[C@@H]3SC[C@@H]4NC(=O)N[C@@H]43)cc12` 1.7

Queued: `N#C/C(=C\c1cccc2cnccc12)c1c[nH]c2ccc(CN3CCCC3)cc12` 1

Queued: `CC(=O)Nc1ccc2[nH]cc(/C(C#N)=C/c3cccc4cnccc34)c2c1` 1.2

Queued: `N#C/C(=C\c1cncc2cnccc12)c1c[nH]c2ccccc12` 1.4

Queued: `N#C/C(=C\c1cccc2cnccc12)c1c[nH]c2ccc(Cl)cc12` 1.4

Queued: `N#C/C(=C\c1cccc2cnccc12)c1cn(C(=O)C2CCN(C(=O)CCCC[C@@H]3SC[C@@H]4NC(=O)N[C@@H]43)CC2)c2ccccc12` 18.6

Queued: `CC(C)(C)OC(=O)N1CCC(C(=O)n2cc(/C(C#N)=C/c3cccc4cnccc34)c3ccccc32)CC1` 16.2

Queued: `N#C/C(=C\c1cccc2cnccc12)c1c[nH]c2ccc(Br)cc12` 2.1

Queued: `CC(=O)NCCC(=O)n1cc(/C(C#N)=C/c2cccc3cnccc23)c2ccccc21` 2.8

Queued: `C(=C\c1c[nH]c2ccccc12)/c1cncc2cnccc12` 1.2

Queued: `N#C/C(=C\c1cccc2cnccc12)c1c[nH]c2ccccc12` 7.3

###

# Tested on: mitotic marker phospho-histone H3 at serine 10 (pH3 (Ser10)) in transformed BJ cells
# assay: Immunoblot analysis of mitotic marker pH3 (Ser10), derivatives of Compound 1
# Format: cell-based
# details: Homo sapiens, band intensities pH3(Ser10)/β-actin vs DMSO control, 24 h
Assign fold induction at 5 µM to each entry below.

Consider the compound `C(=C\c1c[nH]c2ccccc12)/c1cccc2cnccc12` and give its measured fold induction at 5 µM. 1.3

Queued: `N#C/C(=C\c1cccc2cnccc12)c1c[nH]c2cc(CN3CCCC3)ccc12` 1.1

Queued: `N#C/C(=C\c1cccc2cnccc12)c1c[nH]c2ccc(OCCC3OCCO3)cc12` 1

Queued: `N#C/C(=C\c1cccc2cnccc12)c1c[nH]c2c(CN3CCCC3)cccc12` 0.8

Queued: `N#C/C(=C\c1cccc2cnccc12)c1cn(C(=O)CCN)c2ccccc12` 2.1

Queued: `N#C/C(=C\c1cccc2cnccc12)c1c[nH]c2cc(Br)ccc12` 1.6

Queued: `N#C/C(=C\c1cccc2cnccc12)c1n[nH]c2ccccc12` 1.4

Queued: `N#C/C(=C\c1cccc2cnccc12)c1cn(C(=O)CCNC(=O)CCCC[C@@H]2SC[C@@H]3NC(=O)N[C@@H]32)c2ccccc12` 3.2

Queued: `COCCOCC(=O)n1cc(/C(C#N)=C/c2cccc3cnccc23)c2ccccc21` 12.8

Queued: `COc1cccc2c(/C(C#N)=C/c3cccc4cnccc34)c[nH]c12` 3.9

Queued: `N#C/C(=C\c1cccc2cnccc12)c1cn(C(=O)C2CCNCC2)c2ccccc12` 10.1

Queued: `COc1ccc2c(/C(C#N)=C/c3cccc4cnccc34)c[nH]c2c1` 4.3

Queued: `C(=C\c1c[nH]c2ncccc12)/c1cccc2cnccc12` 1.2

Queued: `N#C/C(=C\c1cccc2cnccc12)c1cn(C(=O)CCCC[C@@H]2SC[C@@H]3NC(=O)N[C@@H]32)c2ccccc12` 2.2

Queued: `CC(C)(C)OC(=O)NCCC(=O)n1cc(/C(C#N)=C/c2cccc3cnccc23)c2ccccc21` 4.8

Queued: `COc1ccc2[nH]cc(/C(C#N)=C/c3cccc4cnccc34)c2c1` 3

Queued: `N#C/C(=C\c1cccc2ncccc12)c1c[nH]c2ccccc12` 10.5
